Test: in vivo
Conditions: mouse, po, mice, read-out: LD50 (95% C.L.)
endpoint.name: LD50

For the 2 molecules below, give their LD50 values.
1. COc1cc(C=CC(C)=O)ccc1OCC(O)CNC(C)C (racemic) [DZN]
2. COc1cc(C=CC(C)=O)ccc1O [DZ]

1. > 1000 mg/kg
2. > 1000 mg/kg

###

System: heart rate and blood pressure
Assay: Heart rate and blood pressure changes of rats induced by guaiacoxypropanolamines
Assay type: in vivo
Conditions: 15 min after dosing, 1.0 mg/kg iv, means ± SE (n = 8)
endpoint.name: change in BP

CCCCCCCCC(=O)NCc1ccc(OCC(O)CNCC)c(OC)c1 (centres unmarked): 1.11 ± 1.78 mmHg
CCCCCCCCC(=O)NCc1ccc(OCC(O)CNCCCCCC)c(OC)c1 (centres unmarked): -4.44 ± 2.93 mmHg
CCCCCCCCC(=O)NCc1ccc(OCC(O)CNCCCCC)c(OC)c1 (centres unmarked): -0.88 ± 3.00 mmHg
CCCCCCCCC(=O)NCc1ccc(OCC(O)CNC(C)(C)C)c(OC)c1 (centres unmarked): 2.38 ± 5.41 mmHg

Please find the next compound below.
State change in BP (heart rate and blood pressure) of C=CCNCC(O)COc1ccc(CNC(=O)CCCCCCCC)cc1OC (centres unmarked) . -1.89 ± 2.04 mmHg

###

System: heart rate and blood pressure
Assay: Heart rate and blood pressure changes of rats induced by guaiacoxypropanolamines
Type: in vivo
Settings: 5 min after dosing, 1.0 mg/kg iv, means ± SE (n = 8)
Label key: YES means change in BP under -0.4 mmHg; NO means change in BP of -0.4 mmHg or more.

C=CCNCC(O)COc1ccc(CNC(=O)CCCCCCCC)cc1OC (stereo not drawn): YES
CCCCCCCCC(=O)NCc1ccc(OCC(O)CNC(C)(C)C)c(OC)c1 (stereo not drawn): NO
CCCCCCCCC(=O)NCc1ccc(OCC(O)CNCCCC)c(OC)c1 (stereo not drawn): NO
CCCCCCCCC(=O)NCc1ccc(OCC(O)CNC(C)CC)c(OC)c1 (stereo not drawn): NO
CCCCCCCCC(=O)NCc1ccc(OCC(O)CNCCCCCC)c(OC)c1 (stereo not drawn): YES

Item CCCCCCCCC(=O)NCc1ccc(OCC(O)CNC(C)C)c(OC)c1 (stereo not drawn) : change in BP beneath -0.4 mmHg, strictly? YES

Item CCCCCCCCC(=O)NCc1ccc(OCC(O)CNCC)c(OC)c1 (stereo not drawn) : change in BP beneath -0.4 mmHg, strictly? NO

Item CCCCCCCCC(=O)NCc1ccc(OCC(O)CNC)c(OC)c1 (stereo not drawn) : change in BP beneath -0.4 mmHg, strictly? YES

Item CCCCCCCCC(=O)NCc1ccc(OCC(O)CNCCCCC)c(OC)c1 (stereo not drawn) : change in BP beneath -0.4 mmHg, strictly? YES

###

Record form. Attribute: change in BP. Fill in for each entry.
Tested on: heart rate and blood pressure
Test: Heart rate and blood pressure changes of rats induced by guaiacoxypropanolamines
Type: in vivo
Settings: 5 min after dosing, 1.0 mg/kg iv, means ± SE (n = 8)
Answers are plain numbers, in mmHg.

For the 3 compounds below, give their change in BP values.
1. CCCCCCCCC(=O)NCc1ccc(OCC(O)CNCC(C)C)c(OC)c1 (stereo not shown) [NH-i-C4 H9]
2. CCCCCCCCC(=O)NCc1ccc(OCC(O)CNC2CC2)c(OC)c1 (stereo not shown) [NH-c-C3 H5]
3. CCCCCCCCC(=O)NCc1ccc(OCC(O)CNC2CCCCC2)c(OC)c1 (stereo not shown) [NH-c-C6 H11]

1. -2.75
2. -0.11
3. -4.11

Return the recorded change in BP value; entry: CCCCCCCCC(=O)NCc1ccc(OCC(O)CNCCC)c(OC)c1 (stereo not shown) [NH-n-C3 H7] -1.78

###

Record form. Attribute: Potency ratio (PR), positive inotropic. Fill in for each entry.
Biological target: Isolated Guinea Pig Atria (Cavia porcellus, UniProt H0W3H1)
Construct: Isolated Guinea Pig Atria; from tissue; host or cells: guinea pig atria (isolated organ)
Sequence (H0W3H1 1-470): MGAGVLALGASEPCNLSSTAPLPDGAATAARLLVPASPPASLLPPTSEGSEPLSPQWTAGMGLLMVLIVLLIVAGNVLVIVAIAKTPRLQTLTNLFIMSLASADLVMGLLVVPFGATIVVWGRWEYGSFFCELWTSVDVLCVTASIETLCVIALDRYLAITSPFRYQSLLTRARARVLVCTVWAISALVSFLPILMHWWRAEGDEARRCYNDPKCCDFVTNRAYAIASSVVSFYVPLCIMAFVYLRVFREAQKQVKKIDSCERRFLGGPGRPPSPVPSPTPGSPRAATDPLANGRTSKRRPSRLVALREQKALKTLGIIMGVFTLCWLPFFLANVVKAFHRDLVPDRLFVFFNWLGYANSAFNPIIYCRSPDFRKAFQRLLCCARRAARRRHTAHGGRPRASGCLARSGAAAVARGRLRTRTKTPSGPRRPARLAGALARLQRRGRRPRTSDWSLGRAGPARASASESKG
Experiment: pA2 on isolated guinea pig atria
Type: cell-based
Details: with respect to propranolol

CCCCCCCCC(=O)NCc1ccc(OCC(O)CNCCC)c(OC)c1 (stereo not drawn) [NH-n-C3 H7]: 0.21
CCCCCCCCC(=O)NCc1ccc(OCC(O)CNCC(C)C)c(OC)c1 (stereo not drawn) [NH-i-C4 H9]: 0.14
C=CCNCC(O)COc1ccc(CNC(=O)CCCCCCCC)cc1OC (stereo not drawn) [NHC3 H5]: 0.15
CCCCCCCCC(=O)NCc1ccc(OCC(O)CNC(C)C)c(OC)c1 (stereo not drawn) [NH-i-C3 H7]: 0.45

For the 5 molecules below, give their Potency ratio (PR), positive inotropic values.
1. CCCCCCCCC(=O)NCc1ccc(OCC(O)CNC)c(OC)c1 (stereo not drawn) [NHCH3]
2. CCCCCCCCC(=O)NCc1ccc(OCC(O)CNCC)c(OC)c1 (stereo not drawn) [NHC2 H5]
3. CCCCCCCCC(=O)NCc1ccc(OCC(O)CNC(C)(C)C)c(OC)c1 (stereo not drawn) [NH-t-C4 H9]
4. CCCCCCCCC(=O)NCc1ccc(OCC(O)CNCCCCCC)c(OC)c1 (stereo not drawn) [NH-n-C6 H13]
5. CCCCCCCCC(=O)NCc1ccc(OCC(O)CNCCCC)c(OC)c1 (stereo not drawn) [NH-n-C4 H9]

[0.05, 0.07, 0.24, 0.06, 0.07]
